protein stability index values for the sequences below.
assay: protein stability index of a GFP-peptide fusion (yeast GPS) (PSI 1-4); higher = more stable; sorted into four equal gates, so the index is relative within each strain; conditions: san1∆
Lab note: record just the number, no unit beside it.

sequence_data="TSTGIIRCHREDCDLVI [POP5]" test_result=2.71
sequence_data="IPKPRTAGKTSVKSART [SNF2]" test_result=2.89
sequence_data="FDFIKDNETPSKKTSPK [YOR098C/NUP1]" test_result=2.6
sequence_data="AFSFGAKSNEDKQDGTA [YJL041W/NSP1]" test_result=3
sequence_data="TNQIFQSRRYNLRRHSD [SIN4]" test_result=3.04

Noted for KGEMKGSAITGPVGKEC [RPL23A] : its protein stability index reads 3

Data point: EAHPTKVKNFGVWVRYD [RPL20A] ; protein stability index = 3.01

Hello, the source for this data is the supplement of paper PMC9732359, in case you need it.
